Items are presented alongside their recorded pIC50.
- target-or-test-system: Mitogen-activated protein kinase 9 (Homo sapiens, UniProt P45984)
- Sequence (P45984 whole entry): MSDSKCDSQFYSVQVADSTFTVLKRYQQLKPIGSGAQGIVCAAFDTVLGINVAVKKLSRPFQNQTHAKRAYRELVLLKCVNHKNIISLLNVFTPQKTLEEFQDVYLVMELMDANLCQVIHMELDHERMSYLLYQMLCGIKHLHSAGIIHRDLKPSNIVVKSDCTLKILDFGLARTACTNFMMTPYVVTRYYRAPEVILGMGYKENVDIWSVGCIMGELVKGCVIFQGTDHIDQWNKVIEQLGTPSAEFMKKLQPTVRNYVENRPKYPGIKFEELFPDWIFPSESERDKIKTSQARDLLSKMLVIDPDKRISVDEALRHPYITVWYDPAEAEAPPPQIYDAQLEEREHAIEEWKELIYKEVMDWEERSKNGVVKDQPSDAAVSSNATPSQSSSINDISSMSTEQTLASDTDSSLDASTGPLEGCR
- assay: Inhibition of human c-Jun N-terminal kinase 2
pIC50: −log10 of the molar value.
parameter: pIC50

INSERT INTO results (item_smiles, observed_value) VALUES
  ('CN1CCN(c2ccc3c(n2)nc(-c2ccc(F)cc2)n3-c2ccnc(NC3CCCC3)n2)CC1', 7.33),
  ('CN1CCC(O)(c2cn(-c3ccnc(NC4CCCC4)n3)c(-c3cccc(C(F)(F)F)c3)n2)CC1', 5.33),
  ('C[C@H](Nc1cc(-c2sc(C3CCN(C)CC3)nc2-c2ccc(F)cc2)ccn1)c1ccccc1', 6.58);
